For each entry below, report its Kd value.
Biological target: T1, human plasma IgG3 (human, UniProt P01860-1 1-377)
T1 construct: Plasma-derived IgG isoform, bought
T1 sequence (P01860 other isoform, or with tags, fused parts or gaps): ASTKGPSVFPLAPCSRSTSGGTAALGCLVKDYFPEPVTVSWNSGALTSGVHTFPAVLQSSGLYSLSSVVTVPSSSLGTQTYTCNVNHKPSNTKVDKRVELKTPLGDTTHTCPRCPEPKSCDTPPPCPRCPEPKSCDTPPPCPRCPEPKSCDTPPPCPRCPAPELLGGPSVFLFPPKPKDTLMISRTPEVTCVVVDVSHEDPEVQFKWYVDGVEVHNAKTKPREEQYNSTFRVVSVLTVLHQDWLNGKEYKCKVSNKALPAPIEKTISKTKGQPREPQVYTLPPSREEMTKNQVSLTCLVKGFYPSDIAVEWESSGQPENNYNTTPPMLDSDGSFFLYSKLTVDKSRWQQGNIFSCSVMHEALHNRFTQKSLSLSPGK
Assay: Oregon Green peptide, pH 4.0 + salt (500 mM NaCl)
Give the quantity in nM, number only.

Requested read-out: Kd. Entry: AGAATCSTSYWYYQWFCTDSPGPEGGGK (N-terminal acetyl (Ac-); C-terminal amide (-NH2); Oregon Green labeled, Synthesised by BACHEM, Oregon Green labeled, HPLC purified) [DX398]
40

Can you share its Kd? I mean this binder: AGTYWCTFWELPCDPAPGPEGGGK (N-terminal acetyl (Ac-); C-terminal amide (-NH2); Oregon Green labeled, Synthesised by BACHEM, Oregon Green labeled, HPLC purified) [DX404]
200

Given the entry AGSYWCKIWDVCPQSPGPEGGGK (N-terminal acetyl (Ac-); C-terminal amide (-NH2); Oregon Green labeled, Synthesised by BACHEM, Oregon Green labeled, HPLC purified) [DX392] , report its measured Kd.
600

Which measured Kd value corresponds to AGYWYCWFPDRPECPLYPGPEGGGK (N-terminal acetyl (Ac-); C-terminal amide (-NH2); Oregon Green labeled, Synthesised by BACHEM, Oregon Green labeled, HPLC purified) [DX413] ?
1100

Tell me the measured Kd of AGPHNCDDHYWYCKWFPGPEGGGK (N-terminal acetyl (Ac-); C-terminal amide (-NH2); Oregon Green labeled, Synthesised by BACHEM, Oregon Green labeled, HPLC purified) [DX389] , please.
1800
